Taken from patent US20260042764A1.

biological target: Avi-KRAS WT (2-169) GTP/RAF1 RBD-3xFLAG (51-131) (Homo sapiens, UniProt P01116); construct: Avi-KRAS WT (2-169); test: Raf1-KRAS WT-GTP disruption HTRF assay (Biological Example 3); format: binding; conditions: KRAS WT, GTP-loaded
Sequence (P01116 2-169 isoform P01116-2): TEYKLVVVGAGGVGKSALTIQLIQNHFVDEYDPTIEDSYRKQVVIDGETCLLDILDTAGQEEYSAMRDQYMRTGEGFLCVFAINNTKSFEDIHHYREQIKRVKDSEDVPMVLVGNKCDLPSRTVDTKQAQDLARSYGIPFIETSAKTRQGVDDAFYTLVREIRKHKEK
reported property: IC50

molecule: CCN(c1nc(OC[C@@]23CCCN2C[C@H](F)C3)nc2c(F)c(-c3ccc(F)c4sc(N)c(C#N)c34)c(C(F)(F)F)cc12)[C@H]1CCN(C(=O)C2CC(OC)C2)C1 (stereo partly drawn)
system tested: Avi-KRAS WT (2-169) GTP/RAF1 RBD-3xFLAG (51-131) (Homo sapiens, UniProt P01116)
reported property: IC50
assay result: 0.1 to 1 µM

Entry CCN(c1nc(OC[C@@]23CCCN2C[C@H](F)C3)nc2c(F)c(-c3ccc(F)c4sc(N)c(C#N)c34)c(C(F)(F)F)cc12)[C@H]1CCN(C(=O)N2CC(OC)C2)C1 (atropisomer, axis not shown) — recorded IC50 = ≤ 0.1 µM

Entry CN(Cc1cccnn1)c1nc(OC[C@@]23CCCN2C[C@H](F)C3)nc2c(F)c(-c3ccc(F)c4sc(N)c(C#N)c34)c(C(F)(F)F)cc12 (atropisomer, axis not shown) — recorded IC50 = 1 to 10 µM

* * *

Measured IC50 values are reported for all entries that follow.
Target: Avi-KRAS G12V (1-169) GppNHp/RAF1 RBD-3xFLAG (52-151) (Homo sapiens, UniProt P01116, G12V)
Construct: Avi-KRAS G12V (1-169)
Sequence (P01116 1-169 isoform P01116-2 G12V): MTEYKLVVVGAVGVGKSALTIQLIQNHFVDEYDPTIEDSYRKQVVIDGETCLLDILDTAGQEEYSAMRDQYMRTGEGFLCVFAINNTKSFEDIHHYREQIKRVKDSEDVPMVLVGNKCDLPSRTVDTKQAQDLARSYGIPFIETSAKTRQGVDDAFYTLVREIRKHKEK
Assay: Raf1-KRAS G12V-GppNHP disruption HTRF assay (Biological Example 1)
Assay type: binding
Conditions: KRAS G12V-GppNHp/RAF1 RBD HTRF
Description: A protein:protein interaction (PPI) Homogeneous Time Resolved Fluorescence (HTRF) assay was used to determine the effectiveness of compounds of the present disclosure in disrupting KRAS protein and effector RAF1 binding. The assay buffer included: 50 mM Tris pH 7.5, 100 mM NaCl, 5 mM MgCl2, 0.1% BSA, 0.01% Tween, and 10% DMSO. The bead buffer included: 50 mM Tris pH 7.5, and 0.01% Tween 20. […] Data was reported as percentage of activity, with DMSO as 100%. Data was plotted and analyzed using Prism 8.

compound: COC(=O)N1CC[C@@H](N(C)c2nc(OC[C@@]34CCCN3C[C@H](F)C4)nc3c(F)c(-c4ccc(F)c5sc(N)c(C#N)c45)c(C(F)(F)F)cc23)[C@H]1C [Compound 410]
assay result: 0.1 to 1 µM
//
compound: CC(=O)N1C[C@H]2CCCN(c3nc(OC[C@@]45CCCN4C[C@H](F)C5)nc4c(F)c(-c5ccc(F)c6sc(N)c(C#N)c56)c(C(F)(F)F)cc34)[C@H]2C1 [Compound 453]
assay result: 1 to 10 µM
//
compound: CC(C)C(=O)N1C[C@@H](N(C)c2nc(OC[C@@]34CCCN3C[C@H](F)C4)nc3c(F)c(-c4ccc(F)c5sc(N)c(C#N)c45)c(C(F)(F)F)cc23)C[C@H]1C [Compound 448]
assay result: 1 to 10 µM
//
compound: CCN(c1nc(OC[C@@]23CCCN2C[C@H](F)C3)nc2c(F)c(-c3ccc(F)c4sc(N)c(C#N)c34)c(C(F)(F)F)cc12)[C@@H]1CCN(C(=O)N(C)C)[C@@H]1C [Compound 488]
assay result: 0.1 to 1 µM

Please find the next compound below.
Entry N#Cc1c(N)sc2c(F)ccc(-c3c(C(F)(F)F)cc4c(N5C[C@@H]6C[C@H]5CS6(=O)=O)nc(OC[C@@]56CCCN5C[C@H](F)C6)nc4c3F)c12 [Compound 319] — recorded IC50 = 1 to 10 µM

* * *

Measured pIC50 values are reported for all entries that follow.
molecular target: Avi-KRAS G12D (1-169) GppNHp/RAF1 RBD-3xFLAG (52-151) (Homo sapiens, UniProt P01116, G12D); construct: Avi-KRAS G12D (1-169); test: Raf1-KRAS G12D-GppNHP disruption HTRF assay (Biological Example 1); type: binding; settings: KRAS G12D-GppNHp/RAF1 RBD HTRF
Sequence (P01116 1-169 isoform P01116-2 G12D): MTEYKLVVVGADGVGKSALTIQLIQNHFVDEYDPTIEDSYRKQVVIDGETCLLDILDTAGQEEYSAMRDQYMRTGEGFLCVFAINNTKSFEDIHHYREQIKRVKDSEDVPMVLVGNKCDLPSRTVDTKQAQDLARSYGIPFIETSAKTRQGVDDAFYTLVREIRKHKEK
pIC50: −log10 of the molar value.

Consider the following illustrative entries.
molecule: C[C@@H]1Cn2nncc2CN1c1nc(OC[C@@]23CCCN2C[C@H](F)C3)nc2c(F)c(-c3ccc(F)c4sc(N)c(C#N)c34)c(C(F)(F)F)cc12 (atropisomer, axis not shown)
pIC50: 6.00 to 7.00
//
molecule: CCN(c1nc(OC[C@@]23CCCN2C[C@H](F)C3)nc2c(F)c(-c3ccc(F)c4sc(N)c(C#N)c34)c(C(F)(F)F)cc12)[C@H]1CCN(C(=O)OC(C)C)C1 (atropisomer, axis not shown)
pIC50: > 7.00
//
molecule: CCN(c1nc(OC[C@@]23CCCN2C[C@H](F)C3)nc2c(F)c(-c3ccc(F)c4sc(N)c(C#N)c34)c(C(F)(F)F)cc12)[C@H]1CCN(C(=O)C(C)(C)C)C1 (atropisomer, axis not shown)
pIC50: > 7.00
//
molecule: N#Cc1c(N)sc2c(F)ccc(-c3c(Cl)cc4c(N5C[C@H]6C[C@@H]5CO6)nc(OC[C@@]56CCCN5C[C@H](F)C6)nc4c3F)c12
pIC50: 6.00 to 7.00
//
molecule: CCC(=O)N1CC[C@@H](N(CC)c2nc(OC[C@@]34CCCN3C[C@H](F)C4)nc3c(F)c(-c4ccc(F)c5sc(N)c(C#N)c45)c(C(F)(F)F)cc23)[C@H]1C [Compound 405]
pIC50: 6.00 to 7.00
//
molecule: CC(=O)N1CC(N(C)c2nc(OCC34CCCN3CC(F)C4)nc3c(F)c(-c4ccc(F)c5sc(N)c(C#N)c45)c(C(F)(F)F)cc23)CC1C (centres unmarked)
pIC50: 6.00 to 7.00
//
molecule: CCN(c1nc(OC[C@@]23CCCN2C[C@H](F)C3)nc2c(F)c(-c3ccc(F)c4sc(N)c(C#N)c34)c(C(F)(F)F)cc12)[C@H]1C[C@H](C)N(C(C)=O)C1
pIC50: > 7.00
//
molecule: C[C@H]1C[C@H](N(c2nc(OC[C@@]34CCCN3C[C@H](F)C4)nc3c(F)c(-c4ccc(F)c5sc(N)c(C#N)c45)c(C(F)(F)F)cc23)C2CC2)CN1C(=O)C1CC1
pIC50: 6.00 to 7.00

Please find the next molecule below.
Entry `CN(C)C(=O)c1cn2c(n1)CN(c1nc(OC[C@@]34CCCN3C[C@H](F)C4)nc3c(F)c(-c4ccc(F)c5sc(N)c(C#N)c45)c(C(F)(F)F)cc13)CC2` — recorded pIC50 = 6.00 to 7.00

* * *

target: Avi-KRAS WT (2-169) GTP/RAF1 RBD-3xFLAG (51-131) (Homo sapiens); construct: Avi-KRAS WT (2-169); assay: Raf1-KRAS WT-GTP disruption HTRF assay (Biological Example 3); assay type: binding; settings: KRAS WT, GTP-loaded
Measured IC50 values are reported for all entries that follow.

Consider the following illustrative entries.
compound: CCN(c1nc(OC[C@@]23CCCN2C[C@H](F)C3)nc2c(F)c(-c3ccc(F)c4sc(N)c(C#N)c34)c(C(F)(F)F)cc12)[C@H]1CC[C@](C)(C(=O)N(C)C)C1 (atropisomer, axis not shown)
IC50: 1 to 10 µM

compound: N#Cc1c(N)sc2c(F)ccc(-c3c(C(F)(F)F)cc4c(N5Cc6ccncc6C5)nc(OC[C@@]56CCCN5C[C@H](F)C6)nc4c3F)c12
IC50: 1 to 10 µM

Entry `CC(=O)N1C[C@H](N(C)c2nc(OC[C@@]34CCCN3C[C@H](F)C4)nc3c(F)c(-c4ccc(F)c5sc(N)c(C#N)c45)c(C(F)(F)F)cc23)C[C@@H]1C` — recorded IC50 = 0.1 to 1 µM

Entry CCN(c1nc(OC[C@@]23CCCN2C[C@H](F)C3)nc2c(F)c(-c3ccc(F)c4sc(N)c(C#N)c34)c(C(F)(F)F)cc12)[C@@H]1C[C@H]2CCC(=O)N2C1 (atropisomer, axis not shown) — recorded IC50 = 0.1 to 1 µM

Entry CCN(c1nc(OC[C@@]23CCCN2C[C@H](F)C3)nc2c(F)c(-c3ccc(F)c4sc(N)c(C#N)c34)c(C(F)(F)F)cc12)[C@H]1CCN(C(=O)[C@@H]2C[C@H]2F)[C@@H]1C (atropisomer, axis not shown) — recorded IC50 = 0.1 to 1 µM

Entry CCN(c1nc(OC[C@@]23CCCN2C[C@H](F)C3)nc2c(F)c(-c3ccc(F)c4sc(N)c(C#N)c34)c(C(F)(F)F)cc12)[C@H]1C[C@H](C)N(C(=O)[C@@H]2C[C@@H]2F)C1 (atropisomer, axis not shown) — recorded IC50 = 0.1 to 1 µM

Entry CCN(c1nc(OC[C@@]23CCCN2C[C@H](F)C3)nc2c(F)c(-c3ccc(F)c4sc(N)c(C#N)c34)c(C(F)(F)F)cc12)[C@H]1CCCN(C)C1=O (atropisomer, axis not shown) — recorded IC50 = 1 to 10 µM

Entry CCN(c1nc(OC[C@]23CCCN2C[C@H](F)C3)nc2c(F)c(-c3ccc(F)c4sc(N)c(C#N)c34)c(C(F)(F)F)cc12)[C@H]1CCN(C(=O)OC)C1 (atropisomer, axis not shown) [Compound 954] — recorded IC50 = 0.1 to 1 µM
